- targetEntity: T1, Sen1-HD (UniProt Q00416 1095-1904)
- T1 sequence: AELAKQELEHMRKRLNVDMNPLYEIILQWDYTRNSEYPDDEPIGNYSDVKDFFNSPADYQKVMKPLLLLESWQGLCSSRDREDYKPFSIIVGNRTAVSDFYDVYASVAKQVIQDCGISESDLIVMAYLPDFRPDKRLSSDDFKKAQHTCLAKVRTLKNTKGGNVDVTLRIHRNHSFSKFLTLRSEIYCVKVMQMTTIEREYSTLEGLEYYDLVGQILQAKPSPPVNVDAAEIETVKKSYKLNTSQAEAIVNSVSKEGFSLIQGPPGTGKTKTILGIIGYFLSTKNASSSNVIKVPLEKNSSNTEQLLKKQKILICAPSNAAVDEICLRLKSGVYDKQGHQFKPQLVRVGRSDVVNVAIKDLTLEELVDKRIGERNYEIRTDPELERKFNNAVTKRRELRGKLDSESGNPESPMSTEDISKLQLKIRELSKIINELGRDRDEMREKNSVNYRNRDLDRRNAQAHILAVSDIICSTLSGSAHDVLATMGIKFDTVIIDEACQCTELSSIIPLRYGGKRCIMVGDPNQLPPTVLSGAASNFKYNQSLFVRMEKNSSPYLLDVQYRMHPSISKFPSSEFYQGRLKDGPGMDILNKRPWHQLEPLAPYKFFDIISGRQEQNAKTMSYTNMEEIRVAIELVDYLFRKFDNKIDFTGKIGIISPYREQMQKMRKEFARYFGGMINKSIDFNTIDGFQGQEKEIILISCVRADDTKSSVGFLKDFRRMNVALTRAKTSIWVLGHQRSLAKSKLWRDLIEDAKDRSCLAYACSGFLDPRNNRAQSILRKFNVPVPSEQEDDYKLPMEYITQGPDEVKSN
- assayComment: BLI
pKd: −log10 of the molar value.

| binder | pKd |
| --- | --- |
| UUGUCUUCUCAUAAAUUUAAUCCCCGUACGCUUAUACUCCU (ssRNA) [ssRNA pRMS740 (41 nt)] | 8.43 |
